Tested on: SK-MEL-28;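 note: growth inhibition of human SK-MEL-28 cells, read out with a cell viability assay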
assay_details: cells
Assay type: functional, cell-based
details: Homo sapiens
Description: SANGER: Inhibition of human SK-MEL-28 cell growth in a cell viability assay.
Measured IC50 values are reported for all entries that follow.

[
  {
    "molecule": "O=C1NC(=O)c2c1c(-c1ccccc1Cl)cc1[nH]c3ccc(O)cc3c21",
    "measured_target": "SK-MEL-28",
    "IC50": "> 2000 nM"
  }
]

Q. Returns the measured IC50 for the input molecule. Input: CC1(C)CCC(c2ccc(Cl)cc2)=C(CN2CCN(c3ccc(C(=O)NS(=O)(=O)c4ccc(N[C@H](CCN5CCOCC5)CSc5ccccc5)c(S(=O)(=O)C(F)(F)F)c4)cc3)CC2)C1 [NAVITOCLAX]
A. > 2000 nM

Q. Same lookup for OC[C@H](Cc1ccccc1)Nc1nc(Oc2ccc3c(c2)CCC3)nc2c1ncn2Cc1ccc(-c2ccccc2)cc1 , please.
A. > 10200 nM

Q. Could you do the same for NC(=O)Nc1cc(-c2cccc(F)c2)sc1C(=O)N[C@H]1CCCNC1 [AZD-7762] , please?
A. > 2000 nM

Reference source: ChEMBL document CHEMBL1201861
